# TARGET DESC: NO synthase (Rattus norvegicus)
# Construct: the supernatant was then removed by decantation and frozen in portions at −80° C; from tissue; host or cells: rat cerebellum, 20,000 g supernatant of homogenate
# ASSAY REMARKS: HTS-NOS assay (NOS assay): conversion of radioactive arginine, cation-exchanger filter plate
# Assay type: biochemical
# EXPERIMENTAL SETUP: read-out: HTS-NOS assay: % inhibition (10 μM)
# Method: This assay enables the percentage inhibition of NO synthase by an active ingredient to be determined by measuring the NOS activity under the action of the active ingredient. […] After terminating the NO-forming reaction at a given time, the amount of unconverted arginine is determined directly or indirectly. […] In this HTS-NOS assay, radioactive arginine is used as substrate. […] After drying the filter MTP and adding scintillation liquid, the bound arginine can be counted using a scintillation counter. […]
MEASURE: inhibition at 10 µM (%)
A number alone suffices; assume %.

Entry Cc1ccn2c(NC(C)(C)CC(C)(C)C)c(-c3ccccc3F)nc2c1 [Example 17] ; assay system NO synthase (Rattus norvegicus); inhibition at 10 µM recorded at 51

Entry CCc1ccn2c(Nc3ccc(F)c(Cl)c3)c(-c3ccc(C)o3)nc2c1 [Example 317] ; assay system NO synthase (Rattus norvegicus); inhibition at 10 µM recorded at 59

Entry COC(=O)CNc1c(C2CCCCC2)nc2cc(C)cc(C)n12 [Example 142] ; assay system NO synthase (Rattus norvegicus); inhibition at 10 µM recorded at 59

Entry CC(=O)N(c1c(-c2ccc(C(=O)O)o2)nc2nc(C)ccn12)C(C)(C)CC(C)(C)C [Example 248] ; assay system NO synthase (Rattus norvegicus); inhibition at 10 µM recorded at 52

Entry CC(=O)N(c1c(C)cccc1C)c1c(C(C)(C)C)nc2cc(C)cc(C)n12 [Example 179] ; assay system NO synthase (Rattus norvegicus); inhibition at 10 µM recorded at 60

Entry CC(=O)N(c1c(-c2ccc(C)o2)nc2ccccn12)C(C)(C)C [Example 220] ; assay system NO synthase (Rattus norvegicus); inhibition at 10 µM recorded at 61
